// provenance: PubChem BioAssay (NCI)

# Lookup of reported TGI keyed by entry
Test system: CCRF-CEM leukemia
experiment.notes: NCI tumour cell line growth inhibition, 48 h
measurement.name: TGI (µM)

{"columns": ["compound", "cmp", "reported"],
 "data": [
  ["CN1CCCC1c1cccnc1.O=C(O)c1ccccc1O.O=C([O-])c1ccccc1[OH2+].O=C([O-])c1ccccc1[OH2+].[Mn+2] (centres undefined)", "=", 97.8],
  ["Nc1ccc(-c2nc3ccc(F)cc3s2)cc1I", ">", 100],
  ["CSc1ccc2c(cc1=O)C(NC(=O)c1ccc(C#N)cc1)CCc1cc(O)c(O)c(O)c1-2 (centres undefined)", "=", 57.8],
  ["O/N=C1/CCCc2nonc21", ">", 100],
  ["CCn1ccnc1C(=O)/C=C/c1ccc(CC(=O)Nc2ccc(F)cc2)cc1", "=", 16.3],
  ["CSC1=Nc2c(c(C)c(-c3ccccc3)n2COC(CO)CO)C2=NC(=O)CN12", ">", 100],
  ["CCN(Cc1ccc(F)cc1)c1ccc(CO)c(C(F)(F)F)c1", "=", 43.7],
  ["CN(C)c1nc(N)c(C#N)c(C#N)c1C#N", ">", 10],
  ["COC(=O)[C@@]1(NC(=O)C(CC(=O)OC(C)(C)C)NC(=O)OC(C)(C)C)C[C@H]1C (some centres undefined)", ">", 100]
]}

* * *

Tested on: NCI-H460 lung
Outcomes: Y (active), N (inactive)

{"columns": ["compound", "discrete.label"],
 "data": [
  ["CC(=O)OCC(CC[CH2][Sn]([Cl])([Cl])[c]1ccccc1)OC(C)=O (configuration not stated)", "N"],
  ["O=C1/C(=C/c2ccccc2[N+](=O)[O-])COc2ccc(O)cc21", "N"],
  ["Cc1ccc(Cl)cc1-n1c(C)nc2c(cnn2-c2ccnc3c(C(F)(F)F)cccc23)c1=O", "N"],
  ["Nc1nc2ccccc2c2c1S(=O)(=O)c1ccc(Cl)cc1C2=O", "N"],
  ["COc1ccc2c(c1)C(=O)c1c-2c(=O)n(CCCN(C)C)c2cc(OC)c(OC)cc12", "Y"],
  ["CCn1ccnc1C(=O)/C=C/c1ccc(CC(=O)Nc2ccc(F)cc2)cc1", "N"],
  ["C=C1C(=O)O[C@H]2[C@H]1CC/C(COC(=O)NCc1c[nH]c3ccc(F)cc13)=C\\CC[C@@]1(C)O[C@@H]21", "N"]
]}

* * *

System: ACHN renal
experiment.notes: NCI tumour cell line growth inhibition, 48 h
TGI for assorted compounds

{"columns": ["compound", "target.desc", "u", "cmp", "TGI"],
 "data": [
  ["CC1CCN(CCOc2ccc(CNc3ccc4nc(CCC5CCCCC5)[nH]c4c3)cc2)CC1", "ACHN renal", "µM", "=", 3.22],
  ["Cc1nnc(N/N=C(/C(=O)C(C#N)c2ccc(Cl)cc2)C(C#N)c2ccc(Cl)cc2)n1N (stereo not given)", "ACHN renal", "µM", "=", 30.8],
  ["c1ccc2c(-c3csc(-c4c[nH]c5ccccc45)n3)c[nH]c2c1", "ACHN renal", "µM", ">", 100],
  ["Cc1ccc(Cl)cc1-n1c(C)nc2c(cnn2-c2ccnc3c(C(F)(F)F)cccc23)c1=O", "ACHN renal", "µM", ">", 100],
  ["Fc1ccc2nc(-c3nc(-c4ccccc4)n4ccccc34)[nH]c2c1", "ACHN renal", "µM", "=", 5.94]
]}

* * *

Tested on: SK-MEL-2 melanoma
experiment.notes: NCI tumour cell line growth inhibition, 48 h
Each item that follows carries a reported TGI.

{"columns": ["compound", "u", "cmp", "TGI"],
 "data": [
  ["CC1(C)[C@H](O)[C@H](F)C[C@@]2(C)Oc3ccc(C(=O)Nc4ccc5c(c4)NC(=O)C54CCN(CCCCC#N)CC4)cc3C[C@H]12", "µM", "=", 2.44],
  ["C=CC[N+]1(CC)CCN=C1CCCCCCCCCCCCCCCCC (stereo unspecified)", "µM", "=", 1.59],
  ["Cc1cccc(CNc2ncnc3[nH]ncc23)c1", "µM", ">", 100],
  ["CC(C)OC(=O)C1Cc2c([nH]c3ccccc23)C(c2ccccc2)N1 (stereo unspecified)", "µM", "=", 41.2],
  ["COc1ccc(/C=C/c2cc(OC)c(OCc3ccccc3)c(OC)c2)cc1", "µM", ">", 100],
  ["CC1CCC2(C)C(CC=C(C=O)C2(O)C=O)C12CO2 (stereo unspecified)", "µM", "=", 8.53],
  ["CCn1ccnc1C(=O)/C=C/c1ccc(CC(=O)Nc2ccc(F)cc2)cc1", "µM", ">", 16.7],
  ["Cc1nnc(N/N=C(/C(=O)C(C#N)c2ccc(Cl)cc2)C(C#N)c2ccc(Cl)cc2)n1N (stereo unspecified)", "µM", "=", 34.5],
  ["O=C(O)Cc1cccc2c(=O)c3cccc([N+](=O)[O-])c3[nH]c12", "µM", ">", 100],
  ["O=C(NCCCCCCCN1CCCCCCC1)C(C1CCCCC1)C1CCCCC1", "µM", "=", 22.2],
  ["CC(=O)O[C@@H]1[C@H]2[C@@H](OC(=O)c3ccccc3)[C@@H](C)C[C@]2(O)[C@H](OC(C)=O)[C@@]2(C)[C@@H]3C[C@@](C)(OC(C)=O)C[C@@H](OC(C)=O)[C@@]3(OC(C)=O)C[C@@]12C", "µM", ">", 10],
  ["O=c1ccc2ccccc2c2ccccc12", "µM", "=", 16.2],
  ["O=c1cc(CNC2CC3CCC2C3)[nH]c(=O)[nH]1 (stereo unspecified)", "µM", ">", 100],
  ["CCOC(=O)/C=C/C1(CCOC(C)=O)CCCCC1", "µM", ">", 10],
  ["CN1C(=NCCO)NS(=O)(=O)c2ccccc21", "µM", ">", 100],
  ["CCCC(=O)OCOC(=O)N(C)N=Nc1ccc(C(=O)OCC)cc1", "µM", "=", 36.3],
  ["C/C(=N\\NC(=O)C(N)=O)c1c(O)cc(C)oc1=O", "µM", ">", 100],
  ["S=C(NCc1ccc2c(c1)OCO2)N1CCN(c2ncnc3c2oc2ccccc23)CC1", "µM", ">", 100],
  ["NC(=O)c1sc2nc3ccccc3n2c1N", "µM", "=", 99.2],
  ["COc1ccc(OC)c(Cc2cnc3nc(N)nc(N)c3c2C)c1", "µM", "=", 27.9],
  ["Fc1ccc2nc(-c3nc(-c4ccccc4)n4ccccc34)[nH]c2c1", "µM", "=", 7.83]
]}

* * *

System: OVCAR-4 ovarian
experiment.notes: NCI tumour cell line growth inhibition, 48 h
measurement.name: TGI (µM)

{"columns": ["compound", "target.desc", "cmp", "reported"],
 "data": [
  ["CC(=O)NCCCCN(CCCNC(C)=O)C(=O)OCc1ccccc1", "OVCAR-4 ovarian", ">", 100],
  ["Cc1cc(O)c2c3c(ccc2c1)C(=O)c1c(O)cccc1C3=O", "OVCAR-4 ovarian", "=", 29.8],
  ["C/C(=N\\NC(=S)Nc1ccc([N+](=O)[O-])cc1)c1nc2ncccc2[nH]1", "OVCAR-4 ovarian", "=", 4.21],
  ["c1ccc(C2=C(c3ccccc3)Sc3nnc(CCCCCCCCc4nnc5n4NC(c4ccccc4)=C(c4ccccc4)S5)n3N2)cc1", "OVCAR-4 ovarian", ">", 100],
  ["COc1cc(C(=O)C2CC3(CCC2(O)c2cc(OC)c(OC)c(OC)c2)CC(=O)Nc2ccccc2C3=O)cc(OC)c1OC (stereo not given)", "OVCAR-4 ovarian", "=", 57.5],
  ["COc1ccc(NC/C=C/C(=C/COC(C)=O)OC(C)=O)cc1", "OVCAR-4 ovarian", "=", 3.26],
  ["COc1cc(-c2ncn(/C=C\\c3nnco3)n2)cc(C(F)(F)F)c1", "OVCAR-4 ovarian", ">", 72.4],
  ["CSC(=N)N1N=C2/C(=C/c3ccccc3)CCC[C@H]2[C@H]1c1ccccc1", "OVCAR-4 ovarian", "=", 11.8],
  ["COc1c(CC=C(C)C)c(O)c(C(CC(C)C)c2c(O)c(CC=C(C)C)c(O)c(C(C)=O)c2O)c(O)c1C(C)=O (stereo not given)", "OVCAR-4 ovarian", "=", 14.4],
  ["CC(=O)CC(=O)CCC(=O)Nc1cccc(C(F)(F)F)c1", "OVCAR-4 ovarian", ">", 100]
]}

* * *

System: A498 renal
experiment.notes: NCI tumour cell line growth inhibition, 48 h
measurement.name: TGI

{"columns": ["compound", "reported"],
 "data": [
  ["O=C1/C(=C/c2cccs2)NC(=S)N1CN1CCCCC1", "> 100 µM"],
  ["N#Cc1c(NC(=O)c2ccccc2F)sc2c1CCCC2", "> 25 µM"],
  ["O=S(=O)(O)c1ccc2cc3nn(-c4ccc(/C=C/c5ccc(-n6nc7cc8ccc(S(=O)(=O)O)cc8cc7n6)cc5S(=O)(=O)O)c(S(=O)(=O)O)c4)nc3cc2c1", "> 100 µM"],
  ["Cc1ccc(S(=O)(=O)N2CC(CCN)c3ccccc32)cc1 (stereo unspecified)", "40.6 µM"],
  ["C=CC[N+]1(CC)CCN=C1CCCCCCCCCCCCCCCCC (stereo unspecified)", "2.86 µM"],
  ["FC(F)(F)c1cccnc1Sc1nc2ccccc2s1", "> 100 µM"],
  ["C[P+]1(c2ccccc2)CCCCC1", "> 100 µM"],
  ["CCC(=O)C(CCN1CCC(N2C(=O)C(CCC#N)c3ccccc32)CC1)(c1ccccc1)c1ccccc1 (stereo unspecified)", "40.1 µM"],
  ["CCCC(=O)OCOC(=O)N(C)N=Nc1ccc(C(=O)OCC)cc1", "> 100 µM"],
  ["c1ccc2c(-c3csc(-c4c[nH]c5ccccc45)n3)c[nH]c2c1", "> 100 µM"],
  ["CC(=O)Nc1ccc(S(=O)(=O)NN(C)S(=O)(=O)c2ccc(C)cc2)cc1", "> 100 µM"],
  ["O=S(=O)(NCCCNc1nccc(-c2c(-c3ccc(F)cc3)nc3sccn23)n1)c1ccc(F)cc1", "45.6 µM"],
  ["CCc1ccccc1NC(=O)CC1NC(=O)CS1 (stereo unspecified)", "> 100 µM"],
  ["Cn1nc(-c2ccccc2)c(C(=O)/C=C/c2ccc(Cl)cc2)c(N2CCOCC2)c1=O", "15.8 µM"],
  ["Cc1ccc(C2=Nc3ccccc3SC(c3cccc4c3OCO4)C2)cc1 (stereo unspecified)", "43.6 µM"],
  ["CN(C)c1nc(N)c(C#N)c(C#N)c1C#N", "> 10 µM"],
  ["Nc1[nH]c(=O)[nH]c(=O)c1Cc1cccc(Cl)c1", "> 100 µM"],
  ["Cc1ccc(NC(=O)/C(C#N)=C/c2ccccc2)c(C)c1", "> 100 µM"],
  ["C/C(=N\\NC(=O)C(N)=O)c1c(O)cc(C)oc1=O", "> 100 µM"],
  ["O=S(=O)(O)c1ccc2cc(N=Nc3c(O)ccc4ccccc34)ccc2c1", "> 100 µM"],
  ["COc1cc(C(=O)/C=C/c2c(C(F)(F)F)nc3ccccn23)cc(OC)c1OC", "5.77 µM"],
  ["COc1cccc(C(NC2=NCCC=N2)c2cc3c(cc2O)OCO3)c1O (stereo unspecified)", "78.8 µM"],
  ["CCN1C[C@]2(C)CC[C@H](OC)C34C5C[C@@H]6[C@@H](OC)C[C@@](OC)(C5[C@H]6OCc5ccccc5)C(C13)[C@H](OC(C)=O)[C@@H]42 (stereo partly specified)", "> 100 µM"],
  ["COC(=O)c1ccc(C=C(C#N)C#N)cc1", "> 100 µM"],
  ["CSc1ccc2c(cc1=O)C(NC(=O)c1ccc(C#N)cc1)CCc1cc(O)c(O)c(O)c1-2 (stereo unspecified)", "> 100 µM"],
  ["O=c1[nH]c2nc[nH]c2c(=O)n1C1CCCCC1", "> 100 µM"],
  ["O=c1[nH]c(=S)[nH]c(-c2ccccc2)c1Cc1c(O)ccc2ccccc12", "44.7 µM"],
  ["COC1=C(OC)[C@]2(OC)c3c(O)c(OC)c4c(c3O[C@@]23O[C@@H](c2ccccc2)CC=C3C1=O)[C@@H](OC)C[C@H](c1ccccc1)O4", "2.94 µM"],
  ["C/C(=N\\NC(=S)Nc1ccc([N+](=O)[O-])cc1)c1nc2ncccc2[nH]1", "8.76 µM"],
  ["c1ccc(CN2COc3c(ccc4c5c(ccc34)CN(Cc3ccccc3)CO5)C2)cc1", "> 100 µM"],
  ["CCCCN(C)C(=O)C1=C(C)NC(C)=C(C(=O)N(C)CCCC)C1", "> 100 µM"]
]}
